# measurement notes: refractive index (Na D-line) (dimensionless); xn = mol fraction of the nth substance listed
# condition description: 283.15 K; 101 kPa; Liquid; Standard Abbe refractometry; x1 = 0.6
recorded metric: refractive index
Keep it simple and answer with nothing but the number.

Prompt: Query (compound): C=C[Si](C)(C)O[Si](C)(C)C=C [1,3-diethenyl-1,1,3,3-tetramethyldisiloxane] + Fc1ccccc1 ; field requested: refractive index
Response: 1.42996

Prompt: Query (compound): C=C[Si](C)(C)O[Si](C)(C)C=C [1,3-diethenyl-1,1,3,3-tetramethyldisiloxane] + COc1ccccc1 ; field requested: refractive index
Response: 1.4445

Prompt: Query (compound): C=C[Si](C)(C)O[Si](C)(C)C=C [1,3-diethenyl-1,1,3,3-tetramethyldisiloxane] + CCc1ccccc1 ; field requested: refractive index
Response: 1.44044

Prompt: Query (compound): C=C[Si](C)(C)O[Si](C)(C)C=C [1,3-diethenyl-1,1,3,3-tetramethyldisiloxane] + Clc1ccccc1 ; field requested: refractive index
Response: 1.44533

// data source = the NIST ThermoML archive (doi:10.1016/j.jct.2013.12.025)
